Entries and their measured Max IL-2 conc follow.
Test system: human CD3+ T cells
Test: T cell assay (IL2 in supernatant, anti-CD3/anti-CD28 stimulation)
Assay type: cell-based
Where a name gives a salt, the structure may show the parent alone.
Field: value (include unit after the number)

Solved entries:
>>> val("Cc1nn(C2COC2)cc1Nc1nc(C2CC2)c(-c2cncc3c2ncn3C)nc1C(N)=O")
"3.33 µM"
>>> val("CNc1nc(Nc2ccc(CN3CC4(COC4)C3)cc2Cl)c(C(N)=O)nc1-c1cncc2c1ncn2C [Example 148, formate salt]")
"3.33 µM"
>>> val("CNc1nc(Nc2cn(C3CCN(C)CC3)nc2C)c(C(N)=O)nc1-c1cccc2c1ncn2C [Example 206, formate salt]")
"1.11 µM"

// Input: CNc1nc(Nc2ccc(CN3C[C@H]4C[C@@H]3CO4)cc2F)c(C(N)=O)nc1-c1cncc2c1ncn2C . Output its Max IL-2 conc only.
0.37 µM

// Input: CNc1nc(Nc2cn(C(C)(C)C#N)nc2C)c(C(N)=O)nc1-c1cncc2c1ncn2C . Output its Max IL-2 conc only.
3.33 µM

meta.source: patent US20240374606A1
